These entries and their values trace back to PubChem BioAssay AID504936.

Tested on: S. cerevisiae BY4741 DNA content flow cytometry, cell cycle
experiment: S. cerevisiae cell cycle DNA content profile – flow cytometry (AID 504936);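 note: yeast exposed to compound for three five or seven days before fixation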
assay-conditions: at 10 µM; stronger effect = higher value
Each entry gets f if its G1/G0 population stays under 70%, and t if its G1/G0 population is 70% or above.

Request: Determine whether measured G1/G0 population meets or exceeds 70% for "O=C(OCc1c(F)cccc1Cl)c1cnc2ccccc2n1"
Result: t

Request: Determine whether measured G1/G0 population meets or exceeds 70% for "Cc1cc(C)cc(NC(=O)CN2CCN(c3ccccn3)CC2)c1"
Result: t

Request: Determine whether measured G1/G0 population meets or exceeds 70% for "CC(C)OC(=O)c1ccc2nc3ccccc3nc2c1"
Result: t

Request: Determine whether measured G1/G0 population meets or exceeds 70% for "O=C1c2c(O)ccc(O)c2C(=O)c2c(NCCNCCO)ccc(NCCNCCO)c21"
Result: f

Request: Determine whether measured G1/G0 population meets or exceeds 70% for "[O-][n+]1c2ccccc2[n+]([O-])c2cc(O)ccc21"
Result: f

---

Task for the reader: assign each of the following compounds its reported G2 population.
Tested on: S. cerevisiae BY4741 DNA content flow cytometry, cell cycle
experiment: S. cerevisiae cell cycle DNA content profile – flow cytometry (AID 504936);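 note: yeast exposed to compound for three five or seven days before fixation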
assay-conditions: measured here: G2 phase fraction; at 10 µM; stronger effect = lower value
Give just the number in %; leave the unit off.

Test item "[O-][n+]1c2ccccc2[n+]([O-])c2cc(O)ccc21" ; S. cerevisiae BY4741 DNA content flow cytometry, cell cycle; reported G2 population was 8.17

Test item "c1ccc2[nH]c3cc4ncnc4cc3nc2c1" ; S. cerevisiae BY4741 DNA content flow cytometry, cell cycle; reported G2 population was 8.26

Test item "Nc1cc2nc3ccccc3nc2cc1N" ; S. cerevisiae BY4741 DNA content flow cytometry, cell cycle; reported G2 population was 9.84

Test item CCCCCNC(=O)C(=O)C1C(=O)Nc2ccccc21 (stereo unspecified) ; S. cerevisiae BY4741 DNA content flow cytometry, cell cycle; reported G2 population was 6.62

Test item "CC(C)(C)Nc1ncnc2c1cnn2-c1ccccc1" ; S. cerevisiae BY4741 DNA content flow cytometry, cell cycle; reported G2 population was 10.3

Test item "CCN(CC)C(=O)c1cccc2nc3ccccc3nc12" ; S. cerevisiae BY4741 DNA content flow cytometry, cell cycle; reported G2 population was 8.88

Test item "Cc1ccccc1NC(=O)c1cccc2nc3ccccc3nc12" ; S. cerevisiae BY4741 DNA content flow cytometry, cell cycle; reported G2 population was 12.2

Test item CCC(=Nc1ccccc1O)C1=C(O)CC(c2ccccc2)CC1=O (stereo unspecified) ; S. cerevisiae BY4741 DNA content flow cytometry, cell cycle; reported G2 population was 12.1

Test item "O=C(/C=C/c1cccs1)NC(=S)NNC(=O)Cc1cccs1" ; S. cerevisiae BY4741 DNA content flow cytometry, cell cycle; reported G2 population was 11.1

Test item "O=C(Nc1ccc2nc3ccccc3nc2c1)c1ccc(Br)cc1" ; S. cerevisiae BY4741 DNA content flow cytometry, cell cycle; reported G2 population was 12.5

Test item "OCC[n+]1c2ccccc2nc2ccc(N3CCOCC3)cc21" ; S. cerevisiae BY4741 DNA content flow cytometry, cell cycle; reported G2 population was 12.4

Test item "CC(C)OC(=O)c1ccc2nc3ccccc3nc2c1" ; S. cerevisiae BY4741 DNA content flow cytometry, cell cycle; reported G2 population was 12.4

Test item "Cn1c(=O)[nH]c2nncnc2c1=O" ; S. cerevisiae BY4741 DNA content flow cytometry, cell cycle; reported G2 population was 12

Test item "O=C(c1cccc2nc3ccccc3nc12)N1CCOCC1" ; S. cerevisiae BY4741 DNA content flow cytometry, cell cycle; reported G2 population was 12.1

Test item "COc1ccc2nc3ccccc3nc2c1NC(=O)c1ccccc1Cl" ; S. cerevisiae BY4741 DNA content flow cytometry, cell cycle; reported G2 population was 12.2

Test item "Cc1cc2nc3ccc(N(C)C)cc3nc2cc1N" ; S. cerevisiae BY4741 DNA content flow cytometry, cell cycle; reported G2 population was 5.62

Test item "O=C(Nc1cccc(Cl)c1)Nc1ccc2nccnc2c1" ; S. cerevisiae BY4741 DNA content flow cytometry, cell cycle; reported G2 population was 12

Test item "C=CCOn1c(=O)c(-c2cccs2)[n+]([O-])c2ccccc21" ; S. cerevisiae BY4741 DNA content flow cytometry, cell cycle; reported G2 population was 13.9

Test item "COc1ccc2c(c1)c1nnc(SC)nc1n2C" ; S. cerevisiae BY4741 DNA content flow cytometry, cell cycle; reported G2 population was 11.7

Test item "O=C(CN1CCN(c2ccccn2)CC1)Nc1ccccc1F" ; S. cerevisiae BY4741 DNA content flow cytometry, cell cycle; reported G2 population was 12.1

Test item COc1ccc2cc(C3CC(c4ccco4)=NN3S(=O)(=O)c3ccccc3)c(Cl)nc2c1 (stereo unspecified) ; S. cerevisiae BY4741 DNA content flow cytometry, cell cycle; reported G2 population was 12.7

Test item "C=CCSc1ccc(-c2ccc([N+](=O)[O-])cc2)o1" ; S. cerevisiae BY4741 DNA content flow cytometry, cell cycle; reported G2 population was 10.1

Test item "COc1ccc2nc3ccccc3nc2c1" ; S. cerevisiae BY4741 DNA content flow cytometry, cell cycle; reported G2 population was 12.7

Test item "c1ccc2nc3ccccc3nc2c1" ; S. cerevisiae BY4741 DNA content flow cytometry, cell cycle; reported G2 population was 13.2

Test item "CCN(CC)C(=O)CSc1nnc(-c2cccc(OC)c2)o1" ; S. cerevisiae BY4741 DNA content flow cytometry, cell cycle; reported G2 population was 12.1

Test item "CN(C)CCNc1ncnc2c1cnn2-c1ccc(Cl)cc1" ; S. cerevisiae BY4741 DNA content flow cytometry, cell cycle; reported G2 population was 10.3
